assay-name: qHTS assay to identify small molecule antagonists of the constitutive androstane receptor (CAR) signaling pathway - cell viability counter screen (AID 1224837); further: nearly all actives have a fitted effect of over 45% in size
assay-setup: HepG2-CYP2B6-hCAR viability, CellTiter-Fluor, 23 h, co-treated with 50 nM CITCO; series mostly up to 92.4 µM
Records with an inconclusive call do not appear. Calls of active or inactive are those of the source. The call rests on the fitted dose curve; in most records, active means well fitted cell-killing curve with a large enough effect in the repeat runs; inconclusive means weak or mixed curves, or effect the other way; inactive means flat fitted curve, though single readings scatter.
Choose one outcome from this list and give only that: active, inactive

Use these answered entries as a reference point.
compound	assigned-class
Cc1ccc(C)c2ccccc12	inactive
C[C@]12C/C(=C/O)C(=O)C[C@@H]1CC[C@@H]1[C@@H]2CC[C@@]2(C)[C@H]1CC[C@]2(C)O	inactive
Fc1ccc(C(OCCN2CCN(CCCc3ccccc3)CC2)c2ccc(F)cc2)cc1	active

Which outcome did this test record for the compound COC(=O)/C=C(\C)OP(=O)(OC)OC ? inactive

Which outcome did this test record for the compound C[N+]1(C)[C@@H]2CC[C@H]1CC(OC(=O)C(CO)c1ccccc1)C2 (stereo partly specified) ? inactive

Which outcome did this test record for the compound O=P(Cl)(Cl)Cl ? inactive

---

assay-name: qHTS assay for small molecule activators of the heat shock response signaling pathway - cell viability counter screen (AID 743209); further: nearly all actives have a fitted effect of over 50% in size; further: potency means the concentration at half of the fitted maximal effect
assay-setup: HSE-bla HeLa viability, CellTiter-Glo luminescence, 5 h; series mostly up to 62.6 µM
Records with an inconclusive call do not appear. Activity calls are given as the source filed them. The call rests on the fitted dose curve; in most records, active means well fitted cell-killing curve with a large enough effect in the repeat runs; inconclusive means weak or mixed curves, or effect the other way; inactive means no such curve, though single readings can be large or run the other way.
reported-metric: Potency

Use the examples below as a reference point.
compound	Potency
Clc1ccc(C(c2ccc(Cl)cc2)C(Cl)Cl)cc1	49 µM (active)
CCOP(=S)(OCC)Oc1cc(C)nc(N(CC)CC)n1	inactive
Cc1ccc2cc3c(ccc4ccccc43)c3c2c1CC3	inactive
COP(=O)(OC)Oc1ccc([N+](=O)[O-])cc1	inactive

Report Potency for O.O.O.O.O.O.O=S(=O)([O-])[O-].[Ni+2] inactive

---

target-of-assay: Cytochrome P450 2D6 (Homo sapiens)
assay-name: Cytochrome P450 Family 2 Subfamily D Member 6 (CYP2D6) small molecule antagonists: luciferase reporter qHTS assay (AID 1671196); further: nearly all actives have a fitted effect of over 50% in size; further: potency means the concentration at half of the fitted maximal effect
assay-setup: P450-Glo CYP2D6 enzyme assay, luciferin luminescence, 1 h; series mostly up to 115 µM
From the text: U.S. Tox21 Program National Center for Advancing Translational Sciences [NCATS] U.S. Environmental Protection Agency [EPA] National Institutes of Environmental Health Sciences [NIEHS] National Toxicology Program [NTP] U.S. Food and Drug Administration [FDA] […] The luciferin products formed are detected with a luciferin detection reagent, and the amount of light produced is proportional to CYP activity. […]
Inconclusive results are not listed. Activity calls are given as the source filed them. Calls come from the whole dose curve; as a rule, active = well fitted inhibition curve with a large enough effect in the repeat runs; inconclusive = weak or mixed curves; inactive = no such curve, though single readings can be large or run the other way.
reported-metric: Potency

Use the examples below as a reference point.
molecule	target-of-assay	reported-metric	endpoint-value
[Cl][Hg][c]1ccccc1	Cytochrome P450 2D6 (Homo sapiens)	Potency	0.796 µM (active)
CCN1CCC2(CC1)COc1cc3c(cc12)N(C(=O)c1ccc(-c2ccc(-c4nnc(C)o4)cc2C)cc1)CC3	Cytochrome P450 2D6 (Homo sapiens)	Potency	32.8 µM (active)
O=[N+]([O-])c1ccccc1-c1ccccc1	Cytochrome P450 2D6 (Homo sapiens)	Potency	inactive
O=[N+]([O-])c1ccc(CCl)cc1	Cytochrome P450 2D6 (Homo sapiens)	Potency	inactive
CC(C)N(C(=O)SC/C(Cl)=C/Cl)C(C)C	Cytochrome P450 2D6 (Homo sapiens)	Potency	inactive

Report Potency for CN1[C@@H]2CC[C@H]1CC(O)C2 (some centres not stated) inactive

Report Potency for CCC[CH2][Sn]([CH2]CCC)([CH2]CCC)[O][Sn]([CH2]CCC)([CH2]CCC)[CH2]CCC 0.155 µM (active)

Report Potency for ClC(Cl)C(Cl)(Cl)Cl inactive

Report Potency for O=S1OCC2C(CO1)C1(Cl)C(Cl)=C(Cl)C2(Cl)C1(Cl)Cl (configuration not stated) 4 µM (active)

Report Potency for CCOP(=O)(OCC)Oc1nc(Cl)c(Cl)cc1Cl 5.61 µM (active)

Report Potency for O=C(NC(=O)c1c(F)cccc1F)Nc1ccc(Oc2ccc(C(F)(F)F)cc2Cl)cc1F inactive

Report Potency for O=C(CCCCl)c1ccc(F)cc1 inactive

This collection of values is drawn from PubChem BioAssay (Tox21).
